# test_summary: chemical genetic growth profiling, strain panel (AID 1159580);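 further: tested at 20 µM; growth read once vehicle control cultures reached saturation at 30 °C; 1 = growth at the plate median or of vehicle wells; lower values mean less growth of the strain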
# stated_conditions: S. cerevisiae deletion strains, growth OD, locus YHR030C, strain SLT2, active compounds read low
Out of some 5,500 compounds screened, about 2,000 (36%) were called active. Roughly 18% stayed inconclusive and do not appear here. The list shows a part of the results.
Note to self: normalized growth under 1 means satisfied, ties and anything higher get not satisfied.

(Q) Criterion: normalized growth strictly below 1. Is it met by O=C(CC(Nc1ccccc1)c1ccccc1)C1CC1 (centres undefined) ?
(A) satisfied

(Q) Criterion: normalized growth strictly below 1. Is it met by `COC(=O)c1ccc(-c2ccccc2F)cc1` ?
(A) satisfied

(Q) Criterion: normalized growth strictly below 1. Is it met by `CCOC(=O)NC(=S)NC12CC3CC(CC(C3)C1)C2` ?
(A) satisfied

(Q) Criterion: normalized growth strictly below 1. Is it met by c1ccc(-c2ccc(C(c3ccccc3)n3ccnc3)cc2)cc1 (centres undefined) ?
(A) satisfied

(Q) Criterion: normalized growth strictly below 1. Is it met by `CC(C)(C)OC(=O)N1CCN(Cc2ccccc2)CC1` ?
(A) not satisfied

(Q) Criterion: normalized growth strictly below 1. Is it met by `N=C(N)SCc1nc(-c2ccc(Cl)cc2)no1` ?
(A) satisfied

(Q) Criterion: normalized growth strictly below 1. Is it met by `COCCOc1ccccc1NC(=S)SCCSC(=S)Nc1ccccc1OCCOC` ?
(A) not satisfied

(Q) Criterion: normalized growth strictly below 1. Is it met by `COc1cc(N=Cc2cc(Cl)cc(Cl)c2OC(=O)c2cc(OC)c(OC)c(OC)c2)c(OC)cc1Cl` ?
(A) satisfied

(Q) Criterion: normalized growth strictly below 1. Is it met by `O=S(=O)(c1cc(Br)c(Br)s1)N1CCCCC1` ?
(A) not satisfied

(Q) Criterion: normalized growth strictly below 1. Is it met by `CC(C)(O)C#Cc1ccc(/C=N\Nc2ccccc2)cc1` ?
(A) satisfied

(Q) Criterion: normalized growth strictly below 1. Is it met by `CCOC(=O)CC(=O)Nc1scc(C)c1C(=O)OCC` ?
(A) satisfied

(Q) Criterion: normalized growth strictly below 1. Is it met by `O=C(Nc1ccc(Cl)cc1Cl)c1cnccc1C(F)(F)F` ?
(A) not satisfied

(Q) Criterion: normalized growth strictly below 1. Is it met by `Fc1cccc(Cl)c1Cn1nnc(N2CCCCC2)n1` ?
(A) satisfied

(Q) Criterion: normalized growth strictly below 1. Is it met by `CCOC(=O)c1c(-c2ccc(F)cc2)csc1N` ?
(A) satisfied

(Q) Criterion: normalized growth strictly below 1. Is it met by `CC(C)(O)C#Cc1ccc(/C=N\Nc2c(Cl)cc(Cl)cc2Cl)cc1` ?
(A) satisfied

(Q) Criterion: normalized growth strictly below 1. Is it met by `COc1cc(O)cc(/C=C/c2ccccc2)c1` ?
(A) satisfied

(Q) Criterion: normalized growth strictly below 1. Is it met by `c1ccc(CSC2=NCCCN2)cc1` ?
(A) not satisfied

(Q) Criterion: normalized growth strictly below 1. Is it met by `Cc1ccc(-n2nc(-c3ccc(OC(F)(F)F)cc3)cc2NC(=O)Nc2ccc(OC(F)(F)F)cc2)cc1C` ?
(A) not satisfied

###

# test_summary: chemical genetic growth profiling, strain panel (AID 1159580);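 further: tested at 20 µM; growth read once vehicle control cultures reached saturation at 30 °C; 1 = growth at the plate median or of vehicle wells; lower values mean less growth of the strain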
# stated_conditions: S. cerevisiae deletion strains, growth OD, locus YJL129C, strain trk1, active compounds read low
Out of some 5,500 compounds screened, about 2,000 (36%) were called active. About 18% were inconclusive and are not listed. This is one part of the list.
readout_label: normalized growth
// keep it numeric: no unit symbol after the value

(Q) Quote normalized growth reported for `CCOC(=O)C1=C[C@]2(CC)CCCN3CCc4c(n1c1ccccc41)[C@@H]32` please.
(A) 1.01

(Q) Quote normalized growth reported for `CS(=O)(=O)OCCCCOS(C)(=O)=O` please.
(A) 0.999

(Q) Quote normalized growth reported for O=C(NC(Cc1cc(=O)[nH]c2ccccc12)C(=O)O)c1ccc(Cl)cc1 (centres undefined) please.
(A) 1

(Q) Quote normalized growth reported for `c1ccc2[nH]c(-c3cscn3)nc2c1` please.
(A) 1.02
